Molecular target: T1, ferroportin endogenously expressed on T47D cells (HTB 133, ATCC) (human, UniProt Q9NP59 1-571)
T1 sequence (looked up): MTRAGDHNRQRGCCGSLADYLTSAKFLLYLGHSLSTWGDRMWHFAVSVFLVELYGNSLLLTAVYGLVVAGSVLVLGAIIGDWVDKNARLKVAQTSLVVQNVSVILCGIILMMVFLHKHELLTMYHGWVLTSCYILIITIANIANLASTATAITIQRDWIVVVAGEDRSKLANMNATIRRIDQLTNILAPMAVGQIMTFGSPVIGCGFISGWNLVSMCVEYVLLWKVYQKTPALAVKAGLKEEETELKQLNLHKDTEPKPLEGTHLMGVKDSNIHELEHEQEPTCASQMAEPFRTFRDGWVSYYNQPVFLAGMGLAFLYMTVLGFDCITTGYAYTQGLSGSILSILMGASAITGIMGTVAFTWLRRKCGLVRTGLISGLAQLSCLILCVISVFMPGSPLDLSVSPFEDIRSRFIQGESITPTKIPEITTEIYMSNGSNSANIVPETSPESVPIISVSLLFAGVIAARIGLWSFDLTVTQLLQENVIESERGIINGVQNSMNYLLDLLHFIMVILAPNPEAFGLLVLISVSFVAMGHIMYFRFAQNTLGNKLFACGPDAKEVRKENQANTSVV
Experiment: cell-based or functional assay
Starred links: 1 amine or outer side, 2 acyl side, 3 side chain; linkers in the order of their positions; H or OH if unused. Positions of bridges follow the written chain, without caps; N, C: chain ends. Non-standard residues stand in square brackets, D forms with d. Groups on a side chain read outwards from the residue. *: point of attachment. PEG12 = NCCOCCOCCOCCOCCOCCOCCOCCOCCOCCOCCOCCOCCC(=O)O; C18 diacid = O=C(O)CCCCCCCCCCCCCCCCC(=O)*; Dip = N[C@H](C(=O)O)C(c1ccccc1)c1ccccc1; γGlu = O=C(O)[C@H](CCC(=O)[*:2])N[*:1]; Palmitoyl = CCCCCCCCCCCCCCCC(=O)*; β3hF = N[C@H](CC(=O)O)Cc1ccccc1; Isovaleryl = CC(C)CC(=O)*; Dab = NCC[C@H](N)C(=O)O; Abu = CC[C@H](N)C(=O)O; AEEA = NCCOCCOCC(=O)O; Ahx = NCCCCCC(=O)O
ENDPOINT NAME: T47D MSA IC50
Mention the unit after the number when you answer.

Consider the reported T47D MSA IC50 for these binders:
[[record]]
binder = "Isovaleryl-[Dab]TH[Dip]PAID[β3hF]K([Ahx-Palmitoyl])R-NH2 (lactam 1-8; SMILES CCCCCCCCCCCCCCCC(=O)NCCCCCC(=O)NCCCC[C@H](NC(=O)C[C@H](Cc1ccccc1)NC(=O)[C@@H]1CC(=O)NCC[C@H](NC(=O)CC(C)C)C(=O)N[C@@H]([C@@H](C)O)C(=O)N[C@@H](Cc2c[nH]cn2)C(=O)N[C@@H](C(c2ccccc2)c2ccccc2)C(=O)N2CCC[C@H]2C(=O)N[C@@H](C)C(=O)N[C@@H]([C@@H](C)CC)C(=O)N1)C(=O)N[C@@H](CCCNC(=N)N)C(N)=O) [Isovaleric Acid-Dab-T-H-[Dpa]-P-A-I-D-[bhPhe]-[Lys(Ahx_Palm)]-R-NH2]"
test_value = "131 nM"

[[record]]
binder = "Isovaleryl-ETH[Dip]PAIK([AEEA-AEEA-γGlu-C18 diacid])[β3hF][dK]-NH2 [Isovaleric Acid-E-T-H-[Dpa]-P-A-I-[Lys(1PEG2_1PEG2_IsoGlu_C18_Diacid)]-[bhPhe]-[(D)Lys]-NH2]"
test_value = "65.8 nM"

[[record]]
binder = "Isovaleryl-ETH[Dip]P[Abu]IK([PEG12-C18 diacid])[β3hF][dK]C-NH2 (thioether 6-11) [Isovaleric Acid-E-T-H-[Dpa]-P-Abu-I-[Lys(PEG12_C18_Diacid)]-[bhPhe]-[(D)Lys]-[Cys]-NH2]"
test_value = "388 nM"


Need T47D MSA IC50, item XXTHXPAIEXXR (N-term Isovaleric Acid; Orn1; Dpa4; bhPhe9; Lys(Ahx_Palm)10; C-term NH2; cyclized Orn-E (lactam)) [Isovaleric Acid-Orn-T-H-[Dpa]-P-A-I-E-[bhPhe]-[Lys(Ahx_Palm)]-R-NH2]
5.77 nM
